Target Or System: T1, monomeric soluble human PD1-Avi-His (human, UniProt Q15116 25-170)
T1 construct: extracellular domain; not shown: Avi tag and His tag at the C-terminus
T1 sequence (Q15116 25-170): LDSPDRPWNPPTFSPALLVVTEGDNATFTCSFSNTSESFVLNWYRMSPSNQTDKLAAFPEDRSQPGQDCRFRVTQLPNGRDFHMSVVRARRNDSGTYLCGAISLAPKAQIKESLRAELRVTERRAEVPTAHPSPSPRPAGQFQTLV
Measurement Protocol: SPR (BIACORE T200), antibody captured on anti-human IgG, monomeric PD1-Avi-His flowed, 1:1 fit
Measured Parameter: koff
Record the result as a number with its unit.

• APE1924 (antibody, human IgG1, V domains shown, expressed from HEK 293 cells as human IgG1) VH: EVQLLESGGGLVQPGGSLRLSCAASGFTFSSYTMSWVRQAPGKGLEWVSVISSGGNYAYYPDSVQGRFTISRDNSKNTLYLQMNSLRAEDTAVYYCAKEHYGTSHFAYWGQGTLVTVSS VL: EIVLTQSPATLSLSPGERATLSCRASESVDNFGISFMSWYQQKPGQAPRLLIYAASNPGSGIPARFSGSGSGTDFTLTISSLEPEDFAVYYCQQSKEVPYTFGQGTKLEIK = 0.0018 s⁻¹

Q: Param item = APE1923 (antibody, human IgG1, V domains shown, expressed from HEK 293 cells as human IgG1) VH: EVQLLESGGGLVQPGGSLRLSCAASGFTFSSYTMSWVRQAPGKGLEWVSVISSGGNSAYYPDSVQGRFTISRDNSKNTLYLQMNSLRAEDTAVYYCAKEHYGTSHFAYWGQGTLVTVSS VL: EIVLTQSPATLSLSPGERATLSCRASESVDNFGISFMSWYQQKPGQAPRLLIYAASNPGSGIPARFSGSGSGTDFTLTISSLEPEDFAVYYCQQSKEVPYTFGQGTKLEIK ; retrieve measured koff.
Result: 0.0017 s⁻¹

Q: Fill in: koff of APE1963 (antibody, human IgG1, V domains shown, expressed from HEK 293 cells as human IgG1) VH: EVQLLESGGGLVQPGGSLRLSCAASGFTFSSYTMSWVRQAPGKGLEWVSVISSGGNSAYYPDSVQGRFTISRDNSKNTLYLQMNSLRAEDTAVYYCAKEYYGSSHFAYWGQGTLVTVSS VL: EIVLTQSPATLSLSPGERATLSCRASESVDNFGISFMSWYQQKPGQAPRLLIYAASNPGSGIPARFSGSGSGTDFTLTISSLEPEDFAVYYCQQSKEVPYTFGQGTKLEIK is ___
Result: 0.001 s⁻¹
